Quick reference: CC50 of the listed items.
# Tested on: MDA-MB-435
# experimental.protocol: SRB anti-cancer assay, Breast Cancer
# Assay type: cell-based, human
# test.parameters: MDA-MB-435 (Breast Cancer), 48 h; read-out: LC50 (the source's name)

| structure.smiles.string | target.or.test.system | unit.text | inequality.symbol | CC50 |
| --- | --- | --- | --- | --- |
| N=c1nc(N)c2ncn([C@@H]3O[C@H](COC(=O)c4ccccc4)[C@@H](OC(=O)c4ccccc4)[C@H]3OC(=O)c3ccccc3)c2c(N)n1 | MDA-MB-435 | µM | = | 59.8 |
| N=c1nc(N)c2ncn([C@@H]3O[C@H](CO)[C@@H](O)[C@H]3O)c2c(N)n1 | MDA-MB-435 | µM | = | 65.9 |
| N=c1[nH]c(=O)c2ncn([C@@H]3O[C@H](CO)[C@@H](O)[C@H]3O)c2c(=O)[nH]1 | MDA-MB-435 | µM | > | 100 |
